Reference source for all entries: PubChem BioAssay

- Test: small-molecule binders of probe aInhba, primary screen, biochemical, small-molecule microarray, 635/667 nm fluorescence (AID 1148);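 further: score merges 667nm spot fluorescence with signal-to-noise for antibody binding to printed compounds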
- Measurement parameters: higher = more signal
Recorded endpoint: composite z-score
Form rule: numeric answer, no unit written next to it.

Use these answered entries as a reference point.
COc1ccc(COC(=O)NN=C2C[C@@H](O)[C@@H](O)[C@@H]3[C@@H]4C(=O)N(C[C@@H]5CCCO5)C(=O)[C@@H]4CC[C@@H]23)cc1 : -0.15
CC(C)=NO[C@@H](C)c1cn([C@H](CO)Cc2ccccc2)nn1 : -0.0681
CC(C)(C)N1C(=O)[C@H]2[C@H]3[C@H](O)[C@H](O)CC(=NNC(=O)OCc4ccccc4)[C@H]3CC[C@H]2C1=O : 0.125
CC(CCN1CCCc2nc(C)c(C)cc21)=NO[C@@H](C)c1cn([C@H](CO)Cc2ccccc2)nn1 : 0.153
C=CC[C@@H]1C=C[C@H](Oc2ccc(C)cc2)[C@@H](COC(=O)NCc2cccc3ccccc23)O1 : -0.156

**Query** Param item = `CO[C@H]1COC(=O)CC=C[C@H](C)[C@H](OC)COC(=O)[C@@H](C)NC(=O)CC=C[C@@H]1C` ; retrieve measured composite z-score.
**Result** -0.179

**Query** Param item = `COc1ccc(COC(=O)NN=C2C[C@@H](O)[C@@H](O)[C@@H]3[C@@H]4C(=O)N(c5cccc(Oc6ccccc6)c5)C(=O)[C@@H]4CC[C@H]23)cc1` ; retrieve measured composite z-score.
**Result** -0.0375

**Query** Param item = `CO[C@@H]1COC(=O)[C@H](CCSC)NC(=O)CC=C[C@@H](C)COC(=O)[C@@H]2CCCN2C(=O)CC=C[C@H]1C` ; retrieve measured composite z-score.
**Result** -0.024

**Query** Param item = `O=C1[C@H]2[C@H]3[C@H](O)[C@H](O)CC(=NOCc4ccccc4)[C@H]3CC[C@H]2C(=O)N1C1CCCCC1` ; retrieve measured composite z-score.
**Result** -0.0917

**Query** Param item = `CO[C@H]1COC(=O)CC=C[C@@H](C)COC(=O)[C@H]2CCCN2C(=O)CC=C[C@H]1C` ; retrieve measured composite z-score.
**Result** -0.108

**Query** Param item = `C[C@@H]1CC[C@@H](C(=O)O)N[C@H]1c1cccc(N2CCOCC2)c1` ; retrieve measured composite z-score.
**Result** -0.273
